target: F876L mutant Androgen Receptor (AR-F876L) (Homo sapiens, UniProt P10275, F877L); construct: expressed in transfected cells; host or cells: LNCaP (LNCaP F876L); assay: LNCaP-AR-F876L ANT reporter assay (ARE firefly luciferase, antagonist mode); format: cell-based; conditions: maximum % inhibition of R1881 control response over tested concentration range; read-out: LNCaP-AR-F876L ANT MAX % Inh
Sequence (P10275 whole entry F877L): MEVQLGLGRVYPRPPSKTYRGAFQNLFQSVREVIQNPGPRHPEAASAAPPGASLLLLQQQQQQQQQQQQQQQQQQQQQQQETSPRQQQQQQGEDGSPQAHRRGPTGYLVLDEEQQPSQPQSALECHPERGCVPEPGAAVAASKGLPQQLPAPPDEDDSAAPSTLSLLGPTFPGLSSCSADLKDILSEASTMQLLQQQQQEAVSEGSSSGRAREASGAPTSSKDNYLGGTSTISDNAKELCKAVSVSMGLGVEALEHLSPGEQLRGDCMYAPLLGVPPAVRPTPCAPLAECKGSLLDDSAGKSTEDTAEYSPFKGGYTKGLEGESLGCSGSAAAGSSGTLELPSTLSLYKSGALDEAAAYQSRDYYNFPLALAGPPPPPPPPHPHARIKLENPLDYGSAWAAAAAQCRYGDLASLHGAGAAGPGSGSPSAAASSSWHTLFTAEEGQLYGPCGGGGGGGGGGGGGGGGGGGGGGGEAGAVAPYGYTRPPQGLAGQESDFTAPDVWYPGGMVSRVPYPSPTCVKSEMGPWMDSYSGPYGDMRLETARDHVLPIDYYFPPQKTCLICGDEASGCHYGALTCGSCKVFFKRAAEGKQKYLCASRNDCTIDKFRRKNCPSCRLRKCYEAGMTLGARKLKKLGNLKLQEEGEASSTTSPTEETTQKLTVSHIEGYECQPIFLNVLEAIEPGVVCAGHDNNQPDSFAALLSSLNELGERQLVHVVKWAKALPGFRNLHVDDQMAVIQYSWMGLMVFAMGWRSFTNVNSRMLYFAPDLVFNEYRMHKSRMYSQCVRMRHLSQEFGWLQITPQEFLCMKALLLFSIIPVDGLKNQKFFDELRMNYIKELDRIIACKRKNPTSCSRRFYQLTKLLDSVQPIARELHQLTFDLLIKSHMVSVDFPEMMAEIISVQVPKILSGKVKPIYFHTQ
readout kind: Emax (%)

CS(=O)(=O)N1CCC(Oc2ccc(N3C(=S)N(c4cnc(C#N)c(C(F)(F)F)c4)C(=O)C34CCC4)cc2)CC1 [Cpd 122]; 90.5
CN(CCCNC(=O)c1ccc(N2C(=S)N(c3cnc(C#N)c(C(F)(F)F)c3)C(=O)C23CCC3)cc1F)C1CCCC1 [Cpd 64]; 98.1
N#Cc1ncc(N2C(=O)C3(CCC3)N(c3ccc(OC4CCOCC4)cc3)C2=S)cc1C(F)(F)F [Cpd 112]; 97
N#Cc1ncc(N2C(=O)C3(CCC3)N(c3ccc(C(=O)NCCc4ccccn4)c(F)c3)C2=S)cc1C(F)(F)F [Cpd 15]; 102
CCOC(=O)CNC(=O)c1ccc(N2C(=S)N(c3cnc(C#N)c(C(F)(F)F)c3)C(=O)C23CCC3)cc1F [Cpd 41]; 102
Cc1cc(N2C(=O)C3(CCC3)N(c3ccc(-c4cncc(F)c4)cc3)C2=S)cnc1C#N [Cpd 104]; 98.4
CN1CCN(Cc2ccc(N3C(=S)N(c4cnc(C#N)c(C(F)(F)F)c4)C(=O)C34CCC4)cc2)CC1 [Cpd 30]; 98.8
COCCOc1ccc(N2C(=S)N(c3cnc(C#N)c(C)c3)C(=O)C23CCC3)cc1F [Cpd 100]; 97.2
N#Cc1ncc(N2C(=O)C3(CCC3)N(c3ccc(C(=O)NCc4cccc(Cl)c4)c(F)c3)C2=S)cc1C(F)(F)F [Cpd 95]; 92.3
COc1ccc(N2C(=S)N(c3cnc(C#N)c(C)c3)C(=O)C23CCC3)cc1 [Cpd 69]; 99.1
CN1CCN(CCNC(=O)c2ccc(N3C(=S)N(c4cnc(C#N)c(C(F)(F)F)c4)C(=O)C34CCC4)cc2F)CC1 [Cpd 121]; 98.7
Cc1cc(N2C(=O)C3(CCC3)N(c3ccc(C(=O)Nc4cccc(Cl)c4)c(F)c3)C2=S)cnc1C#N [Cpd 78]; 95.9
COCCCNC(=O)c1ccc(N2C(=S)N(c3cnc(C#N)c(C(F)(F)F)c3)C(=O)C23CCC3)cc1F [Cpd 24]; 99.5
Cc1cc(N2C(=O)C3(CCC3)N(c3ccc(O)cc3)C2=S)cnc1C#N [Cpd 48]; 99.2
Cc1cc(N2C(=O)C3(CCC3)N(c3ccc(C(=O)Nc4cncc(F)c4)c(F)c3)C2=S)cnc1C#N [Cpd 113]; 98.2
CN1CCC(Oc2ccc(N3C(=S)N(c4cnc(C#N)c(C(F)(F)F)c4)C(=O)C34CCC4)c(F)c2)CC1 [Cpd 49]; 96.5
